System: Avena fatua (AVEFA)
Experiment: Glasshouse herbicidal test, pre- and post-emergence, percentage damage to the plant
Type: in vivo
Conditions: pre-emergence, 250 g/h, evaluated after 13 days
property_measured: AVEFA PRE percentage damage caused to the plant (five-point scale)

Example entries begin here.
INSERT INTO measurements (molecule, result) VALUES
  ('CC#Cc1cc(C)c(C2=C(OC(C)=O)CC3(CCN(C(C)=O)C(=O)C3)CC2=O)c(C)c1 (stereo not shown) [Compound P2]', '5 (5=80-100%)'),
  ('CC#Cc1cc(C)c(C2C(=O)CC3(CCN(C(C)=O)C(C)C3)CC2=O)c(C)c1 (stereo not shown) [Compound A58]', '5 (5=80-100%)'),
  ('CC#Cc1cc(C)c(C2C(=O)CC3(C=CN(C(=O)NC(=O)c4ccccn4)CC3)CC2=O)c(C)c1 (stereo not shown) [Compound A57]', '4 (4=60-79%)');

Problem: # input molecule: CC#Cc1cc(C)c(C2C(=O)CC3(CCN(C)C(=O)C3=O)CC2=O)c(C)c1 (stereo not shown) [Compound A5] ; wanted: its AVEFA PRE percentage damage caused to the plant (five-point scale)
Solution: 3 (3=40-59%)

Problem: What about CC#Cc1cc(C)c(C2C(=O)CC3(CCCN(C(C)=O)C3)CC2=O)c(C)c1 (stereo not shown) [Compound A3] ?
Solution: 3 (3=40-59%)

Problem: What about CC#Cc1cc(C)c(C2C(=O)CC3(C=CN(C(=O)CC#N)CC3)CC2=O)c(C)c1 (stereo not shown) [Compound A51] ?
Solution: 5 (5=80-100%)

Problem: What about CC#Cc1cc(C)c(C2C(=O)CC3(CCCN(S(=O)(=O)CC)CC3)CC2=O)c(C)c1 (stereo not shown) [Compound A8] ?
Solution: 5 (5=80-100%)

Problem: What about CC#Cc1cc(C)c(C2C(=O)CC3(C=CN(S(=O)(=O)CC)CC3)CC2=O)c(C)c1 (stereo not shown) [Compound A55] ?
Solution: 5 (5=80-100%)

Problem: What about CC#Cc1cc(C)c(C2C(=O)CC3(C=CN(C(=O)C4CC4)CC3)CC2=O)c(C)c1 (stereo not shown) [Compound A49] ?
Solution: 5 (5=80-100%)

Problem: What about CC#Cc1cc(C)c(C2C(=O)CC3(CCN4C(=O)CCCC4C3)CC2=O)c(C)c1 (stereo not shown) [Compound A13] ?
Solution: 5 (5=80-100%)

----------
Tested on: Avena fatua (AVEFA)
Test: Glasshouse herbicidal test, pre- and post-emergence, percentage damage to the plant
Format: in vivo
Details: pre-emergence, 250 g/h, evaluated after 13 days
property_measured: AVEFA PRE percentage damage caused to the plant (five-point scale)

Example entries begin here.
INSERT INTO results (compound, result) VALUES
  ('CC#Cc1cc(C)c(C2C(=O)CC3(C=CN(C(=O)COC(F)F)CC3)CC2=O)c(C)c1 (centres unmarked) [Compound A50]', '5 (5=80-100%)'),
  ('CC#Cc1cc(C)c(C2C(=O)CC3(CCN(C(C)=O)CC3C)CC2=O)c(C)c1 (centres unmarked) [Compound A59]', '5 (5=80-100%)'),
  ('CC#Cc1cc(C)c(C2C(=O)CC3(C=CN(C(=O)NC(=O)C(C)(C)C)CC3)CC2=O)c(C)c1 (centres unmarked) [Compound A54]', '5 (5=80-100%)'),
  ('CC#Cc1cc(C)c(C2=C(OC(C)=O)CC3(CCCN(C(C)=O)CC3)CC2=O)c(C)c1 (centres unmarked) [Compound P1]', '5 (5=80-100%)'),
  ('CC#Cc1cc(C)c(C2C(=O)CC3(CCC(=O)NC3)CC2=O)c(C)c1 (centres unmarked) [Compound A10]', '5 (5=80-100%)'),
  ('CC#Cc1cc(C)c(C2C(=O)CC3(CCC(=O)N(C(C)=O)C3)CC2=O)c(C)c1 (centres unmarked) [Compound A11]', '3 (3=40-59%)');

Problem: # input compound: CC#Cc1cc(C)c(C2C(=O)CC3(CCN4C(=O)CCC4C3)CC2=O)c(C)c1 (centres unmarked) [Compound A14] ; wanted: its AVEFA PRE percentage damage caused to the plant (five-point scale)
Solution: 5 (5=80-100%)

Problem: What about CC#Cc1cc(C)c(C2C(=O)CC3(CCCN(C(=O)OC(C)(C)C)CC3)CC2=O)c(C)c1 (centres unmarked) [Compound A6] ?
Solution: 4 (4=60-79%)

----------
Test system: Avena fatua (AVEFA)
Experiment: Glasshouse herbicidal test, pre- and post-emergence, percentage damage to the plant
Format: in vivo
Conditions: post-emergence, 250 g/h, evaluated after 13 days
property_measured: AVEFA POST percentage damage caused to the plant (five-point scale)

Example entries begin here.
INSERT INTO results (molecule, result) VALUES
  ('CC#Cc1cc(C)c(C2C(=O)CC3(CCN4C(=O)CCC4C3)CC2=O)c(C)c1 (stereo not shown)', '5 (5=80-100%)'),
  ('CC#Cc1cc(C)c(C2=C(OC(C)=O)CC3(CCN(C(C)=O)C(=O)C3)CC2=O)c(C)c1 (stereo not shown) [Compound P2]', '5 (5=80-100%)'),
  ('CC#Cc1cc(C)c(C2C(=O)CC3(CCN(C(C)=O)C3)CC2=O)c(C)c1 (stereo not shown)', '5 (5=80-100%)');

Problem: # input molecule: CC#Cc1cc(C)c(C2C(=O)CC3(CCCN(C(C)=O)C3)CC2=O)c(C)c1 (stereo not shown) ; wanted: its AVEFA POST percentage damage caused to the plant (five-point scale)
Solution: 5 (5=80-100%)

----------
Test system: Avena fatua (AVEFA)
Assay: Glasshouse herbicidal test, pre- and post-emergence, percentage damage to the plant
Type: in vivo
Conditions: pre-emergence, 250 g/h, evaluated after 13 days
property_measured: AVEFA PRE percentage damage caused to the plant (five-point scale)

Example entries begin here.
INSERT INTO assay_data (molecule, tgt, result) VALUES
  ('CC#Cc1cc(C)c(C2C(=O)CC3(C=CN(C(=O)c4ccccn4)CC3)CC2=O)c(C)c1 (stereo not drawn) [Compound A48]', 'Avena fatua (AVEFA)', '5 (5=80-100%)'),
  ('CC#Cc1cc(C)c(C2=C(OC(=O)OC)CC3(CCN(C(C)=O)C3)CC2=O)c(C)c1 (stereo not drawn) [Compound P3]', 'Avena fatua (AVEFA)', '4 (4=60-79%)'),
  ('CC#Cc1cc(C)c(C2C(=O)CC3(C=CN(C(=O)COC)CC3)CC2=O)c(C)c1 (stereo not drawn) [Compound A15]', 'Avena fatua (AVEFA)', '5 (5=80-100%)');

Problem: # input molecule: CC#Cc1cc(C)c(C2C(=O)CC3(C=CN(C(=O)C(F)F)CC3)CC2=O)c(C)c1 (stereo not drawn) [Compound A56] ; wanted: its AVEFA PRE percentage damage caused to the plant (five-point scale)
Solution: 5 (5=80-100%)

Problem: What about CC#Cc1cc(C)c(C2C(=O)CC3(C=CN(C(=O)NC(C)(C)C)CC3)CC2=O)c(C)c1 (stereo not drawn) [Compound A53] ?
Solution: 2 (2=20-39%)

Problem: What about CC#Cc1cc(C)c(C2C(=O)CC3(CCN(S(=O)(=O)CC)C3)CC2=O)c(C)c1 (stereo not drawn) [Compound A7] ?
Solution: 5 (5=80-100%)

----------
System: Avena fatua (AVEFA)
Assay: Glasshouse herbicidal test, pre- and post-emergence, percentage damage to the plant
Type: in vivo
Details: post-emergence, 250 g/h, evaluated after 13 days
property_measured: AVEFA POST percentage damage caused to the plant (five-point scale)

Example entries begin here.
INSERT INTO results (compound, result) VALUES
  ('CC#Cc1cc(C)c(C2C(=O)CC3(C=CN(C(=O)COC)CC3)CC2=O)c(C)c1 (stereo not drawn) [Compound A15]', '5 (5=80-100%)'),
  ('CC#Cc1cc(C)c(C2C(=O)CC3(CCN(C(C)=O)CC3C)CC2=O)c(C)c1 (stereo not drawn) [Compound A59]', '5 (5=80-100%)'),
  ('CC#Cc1cc(C)c(C2C(=O)CC3(C=CN(C(=O)NC(C)(C)C)CC3)CC2=O)c(C)c1 (stereo not drawn) [Compound A53]', '4 (4=60-79%)'),
  ('CC#Cc1cc(C)c(C2=C(OC(C)=O)CC3(CCCN(C(C)=O)CC3)CC2=O)c(C)c1 (stereo not drawn) [Compound P1]', '5 (5=80-100%)');

Problem: # input compound: CC#Cc1cc(C)c(C2C(=O)CC3(CCN(C)C(=O)C3=O)CC2=O)c(C)c1 (stereo not drawn) [Compound A5] ; wanted: its AVEFA POST percentage damage caused to the plant (five-point scale)
Solution: 4 (4=60-79%)

Problem: What about CC#Cc1cc(C)c(C2C(=O)CC3(CCCN(S(=O)(=O)CC)CC3)CC2=O)c(C)c1 (stereo not drawn) [Compound A8] ?
Solution: 5 (5=80-100%)

Problem: What about CC#Cc1cc(C)c(C2C(=O)CC3(C=CN(S(=O)(=O)CC)CC3)CC2=O)c(C)c1 (stereo not drawn) [Compound A55] ?
Solution: 5 (5=80-100%)

Problem: What about CC#Cc1cc(C)c(C2C(=O)CC3(CCNC(=O)C3)CC2=O)c(C)c1 (stereo not drawn) [Compound A2] ?
Solution: 4 (4=60-79%)

Problem: What about CC#Cc1cc(C)c(C2C(=O)CC3(CCN(S(=O)(=O)CC)C3)CC2=O)c(C)c1 (stereo not drawn) [Compound A7] ?
Solution: 5 (5=80-100%)
